- System: MKN1 cells
- method.notes: MKN1 CTG proliferation assay (120 h) (gastric cancer, wt amplified)
- Format: cell-based
- applied.conditions: Homo sapiens, MKN-1
value.kind: IC50
Remember to quote the unit after the number.

| chemical.structure | IC50 |
| --- | --- |
| C[C@H](Oc1nc(-c2onc3c2CCC[C@@]32CCCc3sc(N)c(C#N)c32)nc2c1n(C)c(=O)n2[C@@H]1CCOC1)[C@@H]1[C@@H](F)CCN1C | 113 nM |
| CO[C@@H]1C[C@@H]([C@H](C)Oc2nc(-c3noc4c3CCC[C@@]43CCCc4sc(N)c(C#N)c43)nc3c2COC[C@]32CCOC2)N(C)C1 | 6 nM |
| C[C@H](Oc1nc(-c2onc3c2CCC[C@@]32CCCc3sc(N)c(C#N)c32)nc2c1n(C)c(=O)n2C1COC1)[C@@H]1CCCN1C | 355 nM |

# IC50 of CCn1c(=O)n([C@@H]2CCCOC2)c2nc(-c3onc4c3CCC[C@@]43CCCc4sc(N)c(C#N)c43)nc(OCC34CCCN3CCC4)c21 = 3400 nM

# IC50 of CO[C@@H]1C[C@@H]([C@H](C)Oc2nc(-c3noc4c3CCC[C@@]43CCCc4sc(N)c(C#N)c43)nc3c2n(C)c(=O)n3[C@@]23COC[C@@H]2C3)N(C)C1 = 12 nM

# IC50 of CO[C@@H]1C[C@@H]([C@H](C)Oc2nc(-c3onc4c3CCC[C@@]43CCCc4sc(N)c(C#N)c43)nc3c2n(C)c(=O)n3[C@@]23COC[C@@H]2C3)N(C)C1 = 9 nM

* * *

- System: MKN1 cells
- method.notes: MKN1 CTG proliferation assay (120 h) (gastric cancer, wt amplified)
- Type: cell-based
- applied.conditions: Homo sapiens, MKN-1
Each record here notes measured log10 of IC50.
Recall that a logarithmic scale is used here: each number is log10 of IC50 in nM.

| compound | target | reported.value |
| --- | --- | --- |
| C[C@H](Oc1nc(-c2onc3c2CCC[C@@]32CCCc3sc(N)c(C#N)c32)nc2c1n(C)c(=O)n2[C@@H]1CCCOC1)[C@@H]1CCCN1C [I-12] | MKN1 cells | 1.00 |
| Cc1nn([C@@H]2CCOC2)c2nc(-c3onc4c3CCC[C@@]43CCCc4sc(N)c(C#N)c43)nc(O[C@@H](C)[C@@H]3CCCN3C)c12 [I-42] | MKN1 cells | 1.91 |
| C[C@H](Oc1nc(-c2noc3c2CCC[C@@]32CCCc3sc(N)c(C#N)c32)nc2c1CN(c1ncccn1)[C@@]21CCOC1)[C@@H]1CCCN1C [II-7b] | MKN1 cells | 2.80 |
| CO[C@H]1CCN(C)[C@@H]1[C@H](C)Oc1nc(-c2onc3c2CCC[C@@]32CCCc3sc(N)c(C#N)c32)nc2c1n(C)c(=O)n2[C@@H]1CCOC1 [I-23] | MKN1 cells | 0.78 |
| C[C@H](Oc1nc(-c2noc3c2CCC[C@@]32CCCc3sc(N)c(C#N)c32)nc2c1CN(C1COC1)C[C@]21CCOC1)[C@@H]1CC[C@H](C)N1C [II-17] | MKN1 cells | 1.30 |

# log10 of IC50 of C[C@H](Oc1nc(-c2noc3c2CCC[C@@]32SCCc3sc(N)c(C#N)c32)nc2c1COC[C@]21CCOC1)[C@@H]1CCCN1C [II-16] = 0.60

# log10 of IC50 of CCn1c(=O)n([C@@H]2CCCOC2)c2nc(-c3onc4c3CCC[C@@]43CCCc4sc(N)c(C#N)c43)nc(O[C@@H](C)C34CCCN3CCC4)c21 [I-36] = 2.38

# log10 of IC50 of C[C@H](Oc1nc(-c2noc3c2CCC[C@@]32CCCc3sc(N)c(C#N)c32)nc2c1CN(c1ncccn1)[C@]21CCOC1)[C@@H]1CCCN1C [II-7a] = 1.61

# log10 of IC50 of COCCn1c(=O)n([C@@H]2CCOC2)c2nc(-c3onc4c3CCC[C@@]43CCCc4sc(N)c(C#N)c43)nc(O[C@@H](C)[C@@H]3CCCN3C)c21 [I-1] = 2.48

# log10 of IC50 of C[C@H](Oc1nc(-c2onc3c2CCC[C@@]32CCCc3sc(N)c(C#N)c32)nc2c1n(C)c(=O)n2[C@@H]1CCOC1)C12CCCN1CCC2 [I-25] = 1.68

# log10 of IC50 of C[C@H](Oc1nc(-c2onc3c2CCC[C@@]32CCCc3sc(N)c(C#N)c32)nc2c1n(C)c(=O)n2C12COC(C1)C2)[C@@H]1CCCN1C [I-15] = 1.67

* * *

- method.notes: Metabolic (microsomal) stability assay, human liver microsomes (HLM)
- Type: in vitro ADME
- applied.conditions: 1 μM test compound, predicted clearance as percent of liver blood flow
- Protocol: The metabolic degradation of the test compound is assayed at 37° C. with pooled liver microsomes (mouse (MLM), rat (RLM) or human (HLM)). […] Additionally, the NADPH-independent degradation is monitored in incubations without NADPH, terminated at the last time point by addition of acetonitrile. […] An aliquot of the supernatant is assayed by LC-MS/MS to quantify the concentration of parent compound in the individual samples. […]
Define the label as Met when HLM QH is strictly less than 60% and as Not met in all remaining cases.

These solved cases illustrate the format of a correct answer.
| chemical.structure | assigned.category |
| --- | --- |
| C[C@H](Oc1nc(-c2onc3c2CCC[C@@]32CCCc3sc(N)c(C#N)c32)nc2c1n(C)c(=O)n2[C@@H]1CCCOC1)[C@@H]1CCCN1C | Met |
| CCn1c(=O)n([C@@H]2CCOC2)c2nc(-c3onc4c3CCC[C@@]43CCCc4sc(N)c(C#N)c43)nc(O[C@@H](C)[C@@H]3CCCN3C)c21 | Met |
| C[C@H](Oc1nc(-c2onc3c2CCC[C@@]32CCCc3sc(N)c(C#N)c32)nc2c1N(C)C(=O)CN2[C@@H]1CCOC1)[C@@H]1CCCN1C | Met |
| CO[C@H]1CCN(C)[C@@H]1[C@H](C)Oc1nc(-c2onc3c2CCC[C@@]32CCCc3sc(N)c(C#N)c32)nc2c1n(C)c(=O)n2[C@H]1CO[C@@H](C)C1 | Not met |

Ask: Below 60% on HLM QH? Entry Cc1cn([C@@H]2CCOC2)c2nc(-c3onc4c3CCC[C@@]43CCCc4sc(N)c(C#N)c43)nc(O[C@@H](C)[C@@H]3CCCN3C)c12
Result: Met

Ask: Below 60% on HLM QH? Entry C[C@H](Oc1nc(-c2noc3c2CCC[C@@]32CCCc3sc(N)c(C#N)c32)nc2c1COC[C@]21CCOC1)[C@@H]1CCCN1C
Result: Met

Ask: Below 60% on HLM QH? Entry CO[C@H]1CCN(C)[C@@H]1[C@H](C)Oc1nc(-c2noc3c2CCC[C@@]32CCCc3sc(N)c(C#N)c32)nc2c1CN(C1COC1)C[C@]21CCOC1
Result: Not met

Ask: Below 60% on HLM QH? Entry COCCn1c(=O)n([C@@H]2CCOC2)c2nc(-c3onc4c3CCC[C@@]43CCCc4sc(N)c(C#N)c43)nc(O[C@@H](C)[C@@H]3CCCN3C)c21
Result: Not met

* * *

Each record here notes measured IC50.
- target: KRAS (G12V)::CRAF protein::protein interaction (Homo sapiens (Human), UniProt P01116, C118S/G12V)
- Sequence (P01116 other isoform, or with tags, fused parts or gaps G12V/C118S): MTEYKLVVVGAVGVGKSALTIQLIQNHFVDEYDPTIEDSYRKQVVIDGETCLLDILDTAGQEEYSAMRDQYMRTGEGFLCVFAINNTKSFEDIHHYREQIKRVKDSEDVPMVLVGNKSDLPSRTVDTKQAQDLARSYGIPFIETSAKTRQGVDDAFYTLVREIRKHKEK
- method.notes: KRAS TR-FRET assay (KRAS G12V::CRAF, GTP)
A number alone suffices; assume µM.

Example compounds with recorded IC50:
| compound | IC50 (µM) |
| --- | --- |
| Cc1cn([C@@H]2CCOC2)c2nc(-c3onc4c3CCC[C@@]43CCCc4sc(N)c(C#N)c43)nc(O[C@@H](C)[C@@H]3CCCN3C)c12 [I-41] | 0.405 |
| C[C@H](Oc1nc(-c2onc3c2CCC[C@@]32CCCc3sc(N)c(C#N)c32)nc2c1n(C)c(=O)n2C1COC1)[C@@H]1CCCN1C [I-24] | 0.153 |

# IC50 of C[C@H](Oc1nc(-c2onc3c2CCC[C@@]32CCCc3sc(N)c(C#N)c32)nc2c1n(C)c(=O)n2[C@@]12COC[C@@H]1C2)[C@@H]1CCCN1C [I-29] = 0.018

# IC50 of C[C@H](Oc1nc(-c2onc3c2CCC[C@@]32CCCc3sc(N)c(C#N)c32)nc2c1COC[C@]21CCOC1)[C@@H]1CCCN1C [I-54] = 0.012

# IC50 of COCCn1c(=O)n([C@@H]2CCOC2)c2nc(-c3onc4c3CCC[C@@]43CCCc4sc(N)c(C#N)c43)nc(O[C@@H](C)[C@@H]3CCCN3C)c21 [I-1] = 0.107
